ASSAY_SUMMARY: Pharmacokinetic parameters (Cmax, AUC, Tmax) of opioid given alone or with dopaminergic agent
DETAILS: serum, sc, 0.25 mg/kg, average Tmax, nalbuphine 0.25 mg/kg subcutaneously, alone
Structures can show the parent of a compound that is named as a salt.
REPORTED_METRIC: Tmax

The compound listed as Oc1ccc2c3c1O[C@H]1[C@@H](O)CC[C@@]4(O)[C@@H](C2)N(CC2CCC2)CC[C@]314 [NB, Nalbuphine HCl] has a reported Tmax of ~37 min

* * *

ASSAY_SUMMARY: Pharmacokinetic parameters (Cmax, AUC, Tmax) of opioid given alone or with dopaminergic agent
DETAILS: serum, sc, 0.25 mg/kg, average Tmax of opioid, nalbuphine 0.25 mg/kg subcutaneously with L-DOPA 25 mg/kg subcutaneously
Structures can show the parent of a compound that is named as a salt.
REPORTED_METRIC: Tmax

The compound listed as Oc1ccc2c3c1O[C@H]1[C@@H](O)CC[C@@]4(O)[C@@H](C2)N(CC2CCC2)CC[C@]314 [NB, Nalbuphine HCl] has a reported Tmax of ~32 min
